# Species: Homo sapiens
# Test Name: Concentration required for the inhibition of LTB4 production in human whole blood
# Assay type: functional, organism-based
# Measurement Conditions: Homo sapiens, Blood
Reported Metric: IC50 (µM)
The reply should contain only the number, in µM.

The compound CC(c1cc2ccncc2s1)N(O)C(N)=O (stereo in doubt; (-)-3a) showed IC50 equal to 2
